Target: hOx1R (Homo sapiens (Human))
Sequence (O43613 whole entry): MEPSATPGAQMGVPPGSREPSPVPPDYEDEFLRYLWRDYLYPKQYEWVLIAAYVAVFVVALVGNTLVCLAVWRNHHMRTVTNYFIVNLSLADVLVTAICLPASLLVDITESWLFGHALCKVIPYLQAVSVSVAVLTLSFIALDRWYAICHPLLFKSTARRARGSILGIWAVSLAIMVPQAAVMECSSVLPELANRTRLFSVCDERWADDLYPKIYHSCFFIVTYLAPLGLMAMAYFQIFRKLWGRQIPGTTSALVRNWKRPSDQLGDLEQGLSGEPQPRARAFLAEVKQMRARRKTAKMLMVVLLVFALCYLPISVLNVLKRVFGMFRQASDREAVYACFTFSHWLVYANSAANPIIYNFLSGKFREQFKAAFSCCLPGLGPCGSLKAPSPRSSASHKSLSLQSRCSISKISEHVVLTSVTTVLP
Test: Radioligand binding assay, [125I]orexin A, hOx1R
Conditions: radioligand [125I]orexin A, competition
YES if Kd is below 700 nM. NO if not; exact matches included in NO.

> print(dat)
                                 cpd.smiles  group.label
1  O=C1N(Cc2c[nH]c3ncccc23)CCCC12CCN(c1cnc3ccccc3n1)CC2           NO
2  O=C1N(Cc2cccc3cccnc23)CCCC12CCN(c1cnc3ccccc3n1)CC2           NO
3  O=C1N(Cc2cccc(-c3cccnc3)c2)CCCC12CCN(c1cnc3ccccc3n1)CC2          YES
4  O=C1N(Cc2cccc(-c3ccccc3)c2)CCCC12CCN(c1cnc3ccccc3n1)CC2           NO
5  O=C1N(Cc2c[nH]c3ccccc23)CCCC12CCN(c1cnc3ccccc3n1)CC2          YES
6  O=C1CCCC2(CCN(c3cnc4ccccc4n3)CC2)N1Cc1cccc2[nH]ccc12          YES
7  O=C1CCCC2(CCN(c3nc4cc(Cl)ccc4o3)CC2)N1Cc1cccc2[nH]ccc12           NO
8  O=C1CCCC2(CCN(c3nc4ccccc4o3)CC2)N1Cc1cccc2[nH]ccc12          YES
